experimentalSystem: human full-length CD33 (CD33^FL) (UniProt P20138 18-364)
Sequence (P20138 18-364): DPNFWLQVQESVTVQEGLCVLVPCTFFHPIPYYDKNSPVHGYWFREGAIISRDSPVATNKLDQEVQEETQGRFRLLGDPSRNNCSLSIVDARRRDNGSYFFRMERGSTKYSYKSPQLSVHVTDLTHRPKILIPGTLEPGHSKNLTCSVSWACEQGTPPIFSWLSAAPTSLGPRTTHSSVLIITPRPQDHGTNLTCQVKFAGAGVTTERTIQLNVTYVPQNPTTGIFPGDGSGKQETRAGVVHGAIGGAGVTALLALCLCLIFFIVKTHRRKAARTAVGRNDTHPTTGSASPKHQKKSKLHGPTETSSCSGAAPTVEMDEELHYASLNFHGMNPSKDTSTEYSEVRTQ
procedureDetails: SPR (Carterra); 4 µg/mL
testReadout: Kd (nM)

binder="1E6 antibody (human CD33^PAN antibody clone, hybridoma-derived) (antibody, V domains shown) VH: QVQLVESGGGVVQPGRSLRLSCAASGFTFSSYDIHWVRQAPGKGLEWVAVIWYDGSHNYYSDSVKGRFTISRDNSKNTLYLQMNSLRAEDTAVYYCARDYSGSYYDYWGQGTLVTVSS VL: AIQMTQSPSSLSASVGDRVTITCRASQGIRNDLGWYQQKPGKAPKLLIYAASNLQSGVPSRFSGSGSGTDFTLTISSLQPEDFATYYCLQDYSYPRTFGQGTKVEIK" measurement=78
